For each entry below, report its Phytotox value on a scale from 0-100 (100 is 100% damage) value.
System: Cesa3_S983F, fpx1-3 mutant line
Experiment: Greenhouse phytotox, pre-emergent treatment
Assay type: in vivo, Arabidopsis thaliana
Conditions: 3.91 g ai/ha

Give Phytotox value on a scale from 0-100 (100 is 100% damage) for each listed item.
1. CC(C)(F)c1nc(N)nc(Nc2c(F)c(F)c(Br)c(F)c2F)n1
2. CC(C)(F)c1nc(N)nc(Nc2nc(F)c(F)c(Cl)c2F)n1

# output
[25, 13]

====

System: Arabidopsis mutant line Cesa1_G1009D
Assay: Growth inhibition of Arabidopsis lines in 48-well plates, tolerance factor from IC50
Assay type: in vivo, Arabidopsis thaliana
Details: growth inhibition seven to ten days after seeding
metric_name: Relative tolerance rate (wildtype = 1.0)
Numbers only.

// solved cases for Relative tolerance rate (wildtype = 1.0) follow
| record_smiles | recorded_result |
| --- | --- |
| CC(C)(F)c1nc(N)nc(Nc2c(F)c(F)c(F)c(F)c2F)n1 | 2 |
| CC(C)(F)c1nc(N)nc(Nc2nc(F)c(F)c(Cl)c2F)n1 | 1 |
| Nc1nc(Nc2c(F)c(F)c(F)c(F)c2F)nc(C2CCCCC2)n1 | 1 |
| Nc1nc(Nc2c(F)c(F)cc(F)c2F)nc(-c2c(F)cccc2F)n1 | 1 |

Shifting focus to the compound that follows.
# input State its Relative tolerance rate (wildtype = 1.0) for this compound: "Nc1nc(Nc2c(F)c(F)c(F)c(F)c2F)nc(C2CCCC2)n1"
# output 3

====

Answer each item with its documented Phytotox value on a scale from 0-100 (100 is 100% damage).
Test system: Cesa3_S983F, fpx1-3 mutant line
Assay: Greenhouse phytotox, pre-emergent treatment
Format: in vivo, Arabidopsis thaliana
Details: 3.91 g ai/ha
Give bare numbers.

In the examples that follow, each entry is paired with its recorded Phytotox value on a scale from 0-100 (100 is 100% damage).
| compound | recorded_result |
| --- | --- |
| Nc1nc(Nc2c(F)c(F)c(F)c(F)c2F)nc(C2CCCC2)n1 | 20 |
| Nc1nc(Nc2c(F)c(F)cc(F)c2F)nc(-c2c(F)cccc2F)n1 | 35 |

Field: Phytotox value on a scale from 0-100 (100 is 100% damage). Fill in for each record below.
1. Cc1cccc(-n2nc(C(N)=O)nc2-c2ccccc2)c1 [reference compound]
2. CC(C)(F)c1nc(N)nc(Nc2c(F)c(F)c(F)c(F)c2F)n1

# output
1: 0; 2: 98
